Assay procedure: Post-emergent Test III, herbicidal activity in wheat and barley
Assay type: in vivo, Lolium multiflorum, Lolium rigidum
Protocol conditions: Lolium multiflorum, post-emergence, 504 h; 140 g ai/ha; read-out: Visual Growth Reduction (%) 21 Days After Application LOLSS
Readout label: pest or weed control at 140 g/ha

1. COC(=O)c1nc(-c2ccc(C#N)cc2)c(F)c(N)c1Cl: 0 to 29%
2. Nc1cc(-c2ccc(Br)c(F)c2F)nc(C(=O)O)c1Cl: 0 to 29%
3. Nc1c(F)c(-c2ccc(Br)c(F)c2F)nc(C(=O)O)c1Cl: 60 to 74%
4. COC(=O)c1nc(-c2ccc(Br)cc2)c(F)c(N)c1Cl: 85 to 94%
5. C=Cc1c(C(=O)O)nc(-c2ccc(Cl)c(F)c2)c(F)c1N: 85 to 94%
6. Nc1c(F)c(-c2ccc(I)cc2)nc(C(=O)O)c1Cl: 85 to 94%
7. Nc1c(F)c(-c2ccc(Br)cc2)nc(C(=O)O)c1Cl: 60 to 74%
8. COC(=O)c1nc(-c2ccc(I)cc2)c(F)c(N)c1Cl: 75 to 84%

---

Test system: Key Grass and Sedge Weeds as well as Grass Crops
Assay procedure: Post-emergent Test II herbicidal activity (Table 6)
Format: in vivo
Protocol conditions: post-emergence, 336 h, ORYSA: rice (Oryza sativa), crop, 140 g ai/ha, read-out: Visual Growth Reduction (%) 14 Days After Application, ORYSA
Readout label: pest or weed control at 140 g/ha

1. C=Cc1c(C(=O)OC)nc(-c2ccc(Cl)c(F)c2)c(F)c1N: 0 to 29%
2. COC(=O)c1nc(-c2ccc(Br)cc2F)c(F)c(N)c1Cl: 0 to 29%
3. Nc1c(F)c(-c2ccc(I)c(F)c2)nc(C(=O)O)c1Cl: 0 to 29%
4. Nc1c(F)c(-c2ccc(Br)c(F)c2)nc(C(=O)O)c1Cl: 0 to 29%
5. C#Cc1ccc(-c2nc(N)c(OC)c(C(=O)O)n2)c(F)c1: 0 to 29%
6. COc1c(N)nc(-c2ccc(Br)cc2)nc1C(=O)O: 0 to 29%
7. COC(=O)c1nc(-c2ccc(OC(F)F)c(F)c2)c(F)c(N)c1Cl: 0 to 29%
8. Nc1c(F)c(-c2ccc(I)cc2F)nc(C(=O)O)c1Cl: 30 to 44%
9. Nc1c(F)c(-c2ccc(Br)c(F)c2F)nc(C(=O)O)c1Cl: 75 to 84%
10. Nc1c(F)c(-c2ccc(OC(F)F)cc2)nc(C(=O)O)c1Cl: 30 to 44%
11. COC(=O)c1nc(-c2ccc(C#N)c(F)c2F)c(F)c(N)c1Cl: 0 to 29%
12. COC(=O)c1ccc(-c2nc(C(=O)OC)c(Cl)c(N)c2F)cc1: 0 to 29%
13. C#Cc1ccc(-c2nc(C(=O)O)c(Cl)c(N)c2F)cc1: 0 to 29%
14. Nc1cc(-c2ccc(I)cc2)nc(C(=O)O)c1Cl: 0 to 29%
15. COC(=O)c1nc(-c2cccc(F)c2F)c(F)c(N)c1Cl: 0 to 29%
16. Nc1c(F)c(-c2ccccc2)nc(C(=O)O)c1Cl: 0 to 29%
17. COC(=O)c1nc(-c2ccc(OC(F)F)cc2)c(F)c(N)c1Cl: 0 to 29%
18. COC(=O)c1nc(-c2ccccc2)nc(N)c1OC: 0 to 29%
19. COC(=O)c1nc(-c2ccc(Br)c(F)c2F)c(F)c(N)c1Cl: 45 to 59%

---

Entries and their measured pest or weed control at 35 g/ha follow.
Assay procedure: Post-emergent Test III, herbicidal activity in wheat and barley
Format: in vivo, Lolium multiflorum, Lolium rigidum
Protocol conditions: Lolium multiflorum, post-emergence, 504 h; 35 g ai/ha; read-out: Visual Growth Reduction (%) 21 Days After Application LOLSS
Readout label: pest or weed control at 35 g/ha

1) COC(=O)c1nc(-c2ccc(C(F)F)cc2)c(F)c(N)c1Cl: 0 to 29%
2) COC(=O)c1nc(-c2ccc(I)cc2)c(F)c(N)c1Cl: 30 to 44%
3) Nc1c(F)c(-c2ccc(Cl)c(F)c2)nc(C(=O)O)c1Cl: 45 to 59%
4) C=Cc1c(C(=O)O)nc(-c2ccc(Cl)c(F)c2)c(F)c1N: 30 to 44%

---

System: KCHSC: kochia (Kochia scoparia)
Assay procedure: Post-emergent Test III, herbicidal activity in wheat and barley
Type: in vivo
Protocol conditions: probit analysis, dose for growth reduction of 80 percent, 21 days after application
Method: Post-emergent Test III. […] A weighed amount, determined by the highest rate to be tested, of each test compound was placed in a 25 mL glass vial and was dissolved in 4 mL of a 97:3 v/v mixture of acetone and DMSO to obtain concentrated stock solutions. […]
Entries and their measured GR80 KCHSC follow.
Readout label: GR80 KCHSC (g ai/ha)

1. Nc1cc(-c2ccc(Br)c(F)c2F)nc(C(=O)O)c1Cl: 47
2. Nc1c(F)c(-c2ccc(Br)cc2)nc(C(=O)O)c1Cl: 5

---

Tested on: Key Broadleaf Weed and Crop Species
Assay procedure: Post-emergent Test II herbicidal activity (Table 5)
Type: in vivo
Protocol conditions: post-emergence, 336 h; EPHHL: wild poinsettia (Euphorbia heterophylla); application rate 140 g ai/ha; 14 days after application; read-out: Visual Growth Reduction (%) 14 Days After Application, EPHHL
Excerpt: Post-emergent Test II: Seeds or nutlets of the desired test plant species were planted in Sun Gro Metro-Mix® 360 planting mixture, which typically has a pH of 6.0 to 6.8 and an organic matter content of about 30 percent, in plastic pots with a surface area of 64 square centimeters. When required to ensure good germination and healthy plants, a fungicide treatment and/or other chemical or physical treatment was applied. […]
Entries and their measured pest or weed control at 140 g/ha follow.
Readout label: pest or weed control at 140 g/ha

1) COC(=O)c1nc(-c2ccc(Br)c(F)c2F)cc(N)c1Cl [Compound 114]: 95 to 100%
2) COC(=O)c1nc(-c2ccc(Br)c(F)c2F)nc(N)c1OC [Compound 122]: 95 to 100%
3) Nc1c(F)c(-c2ccc(OC(F)F)c(F)c2F)nc(C(=O)O)c1Cl [Compound 19]: 30 to 44%
4) C#Cc1ccc(-c2nc(C(=O)OC)c(Cl)c(N)c2F)cc1 [Compound 7]: 95 to 100%
5) Nc1c(F)c(-c2ccc(Cl)c(F)c2)nc(C(=O)O)c1Cl [Compound 217]: 95 to 100%

---

Tested on: Key Broadleaf Weed and Crop Species
Assay procedure: Post-emergent Test II herbicidal activity (Table 5)
Type: in vivo
Protocol conditions: post-emergence, 336 h; BRSNN: oilseed-rape, canola (Brassica napus); 70 g ai/ha; post-emergent; 14 days after application; read-out: Visual Growth Reduction (%) 14 Days After Application BRSNN
Readout label: pest or weed control at 70 g/ha

1) Nc1cc(-c2c(F)cc(I)c(F)c2F)nc(C(=O)O)c1Cl: 95 to 100%
2) COC(=O)c1nc(-c2ccc(OC(F)F)cc2)c(C)c(N)c1Cl: 0 to 29%
3) C=Cc1c(C(=O)OC)nc(-c2ccc(C(F)(F)F)c(F)c2F)c(F)c1N: 0 to 29%

---

Test system: SASKR: Russian thistle (Salsola iberica)
Assay procedure: Post-emergent Test III, herbicidal activity in wheat and barley
Type: in vivo
Protocol conditions: probit analysis; dose for 80 percent growth reduction; 21 days after application
Entries and their measured GR80 SASKR follow.
Readout label: GR80 SASKR (g ai/ha)

1) COC(=O)c1nc(-c2ccc(I)c(F)c2)c(F)c(N)c1Cl [Compound 132]: 66
2) COC(=O)c1nc(-c2ccc(Br)cc2F)c(F)c(N)c1Cl [Compound 52]: 84
3) C=Cc1c(C(=O)O)nc(-c2ccc(C(F)(F)F)c(F)c2)c(F)c1N [Compound 86]: 66

---

Entries and their measured pest or weed control at 140 g/ha follow.
System: Key Grass and Sedge Weeds as well as Grass Crops
Assay procedure: Post-emergent Test II herbicidal activity (Table 6)
Assay type: in vivo
Protocol conditions: post-emergence, 336 h, ECHCG: barnyardgrass (Echinochloa crus-galli), application rate 140 g ai/ha, read-out: Visual Growth Reduction (%) 14 Days After Application, ECHCG
Readout label: pest or weed control at 140 g/ha

1) C=Cc1c(C(=O)OC)nc(-c2ccc(C(F)(F)F)c(F)c2F)c(F)c1N [Compound 53]: 0 to 29%
2) N#Cc1ccc(-c2nc(C(=O)O)c(Cl)c(N)c2F)c(F)c1 [Compound 65]: 0 to 29%
3) C=Cc1c(C(=O)O)nc(-c2ccc(I)cc2)c(F)c1N [Compound 17]: 85 to 94%
4) COc1c(N)nc(-c2ccc(OC(F)(F)F)cc2)nc1C(=O)O [Compound 102]: 0 to 29%
5) COC(=O)c1nc(-c2ccc(OC(F)F)cc2)c(C)c(N)c1Cl [Compound 111]: 0 to 29%
6) COC(=O)c1nc(-c2cc(F)c(OC(F)F)cc2F)cc(N)c1Cl [Compound 177]: 60 to 74%
7) COC(=O)c1nc(-c2c(F)cc(I)c(F)c2F)cc(N)c1Cl [Compound 90]: 85 to 94%
8) COC(=O)c1nc(-c2ccc(OC(F)F)cc2)cc(N)c1Cl [Compound 23]: 95 to 100%
9) COC(=O)c1nc(-c2cc(F)c(C(F)F)cc2F)nc(N)c1OC [Compound 193]: 0 to 29%
10) Nc1c(Cl)c(C(=O)O)nc(-c2ccc(I)c(F)c2)c1Cl [Compound 145]: 75 to 84%
11) Nc1c(Cl)c(C(=O)O)nc(-c2ccc(OC(F)(F)F)cc2)c1Cl [Compound 105]: 0 to 29%
12) C#Cc1ccc(-c2nc(C(=O)O)c(Cl)c(N)c2Cl)cc1 [Compound 153]: 0 to 29%
13) COc1c(N)nc(-c2ccc(C#N)cc2)nc1C(=O)O [Compound 25]: 0 to 29%
14) COC(=O)c1nc(-c2ccc(I)c(F)c2)cc(N)c1Cl [Compound 66]: 60 to 74%
15) C=Cc1c(N)nc(-c2ccc(F)c(F)c2F)nc1C(=O)O [Compound 191]: 75 to 84%
16) COC(=O)c1nc(-c2ccc(Br)c(F)c2)nc(N)c1OC [Compound 171]: 60 to 74%
17) COC(=O)c1nc(-c2cc(F)c(C)cc2F)c(F)c(N)c1Cl [Compound 184]: 60 to 74%
18) C=Cc1c(C(=O)O)nc(-c2ccc(C#N)cc2)c(F)c1N [Compound 150]: 0 to 29%
19) COC(=O)c1nc(-c2ccc(C#N)c(F)c2)c(C)c(N)c1Cl [Compound 155]: 0 to 29%
20) C=Cc1c(C(=O)OC)nc(-c2ccc(C#N)cc2)c(F)c1N [Compound 107]: 0 to 29%
21) Nc1cc(-c2cc(F)c(OC(F)F)cc2F)nc(C(=O)O)c1Cl [Compound 187]: 60 to 74%
22) Nc1c(F)c(-c2ccc(OC(F)F)c(F)c2F)nc(C(=O)O)c1Cl [Compound 19]: 0 to 29%
23) COC(=O)c1nc(-c2ccc(C#N)cc2)c(C)c(N)c1Cl [Compound 83]: 0 to 29%
24) COC(=O)c1nc(-c2cc(F)c(C(F)F)cc2F)cc(N)c1Cl [Compound 205]: 85 to 94%
25) COC(=O)c1nc(-c2ccc(Br)c(F)c2)c(Cl)c(N)c1Cl [Compound 73]: 60 to 74%
26) Nc1c(Cl)c(C(=O)O)nc(-c2ccc(C(F)(F)F)c(F)c2)c1Cl [Compound 146]: 85 to 94%
27) Nc1c(F)c(-c2cc(F)c(C(F)F)cc2F)nc(C(=O)O)c1Cl [Compound 178]: 85 to 94%
28) Nc1cc(-c2ccc(I)c(F)c2F)nc(C(=O)O)c1Cl [Compound 38]: 95 to 100%
29) COC(=O)c1nc(-c2ccc(OC(F)(F)F)cc2)c(Cl)c(N)c1Cl [Compound 170]: 0 to 29%
30) Nc1cc(-c2cc(F)c(C(F)F)cc2F)nc(C(=O)O)c1Cl [Compound 174]: 85 to 94%
31) C#Cc1ccc(-c2cc(N)c(Cl)c(C(=O)OC)n2)cc1 [Compound 126]: 95 to 100%
